Give measured pEC50 for each item. Keep answers brief.
# target_desc: UniProt P08908
# Sequence (P08908 whole entry): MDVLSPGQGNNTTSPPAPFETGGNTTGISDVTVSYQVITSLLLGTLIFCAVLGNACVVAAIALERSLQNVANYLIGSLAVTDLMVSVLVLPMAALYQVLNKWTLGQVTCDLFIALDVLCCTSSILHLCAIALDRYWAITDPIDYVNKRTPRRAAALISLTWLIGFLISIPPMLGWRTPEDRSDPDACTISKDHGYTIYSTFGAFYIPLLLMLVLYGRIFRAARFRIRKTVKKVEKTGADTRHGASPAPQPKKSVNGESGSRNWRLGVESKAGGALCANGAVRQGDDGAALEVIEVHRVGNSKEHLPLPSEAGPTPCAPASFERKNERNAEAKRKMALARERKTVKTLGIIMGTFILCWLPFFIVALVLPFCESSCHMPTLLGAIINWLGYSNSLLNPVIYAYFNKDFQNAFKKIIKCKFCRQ
# assay_name: In vitro potency at human 5-hydroxytryptamine 1A receptor in inhibiting forskolin-stimulated accumulation of intracellular cAMP
Give bare numbers, as −log10 of the molar value.

O=C(NCCN1CCN(c2cccc3c2OCCO3)CC1)c1ccc(F)cc1 :: 9.05

Here is the next item to consider.
Item: CC1CN(c2cccc3c2OCCO3)CC(C)N1CCNC(=O)c1ccc(F)cc1 (configuration not stated) Test system: UniProt P08908 Read-out: pEC50 Value: ?
9.11

====

For each of the molecules below, state its logP.
# assay_name: Partition coefficient (logP)
# Assay type: physicochemical
# condition_details: octanol/water
One number for each entry.

Would you please look over these solved cases?
COc1ccccc1N1CCN(CCNC(=O)c2ccccc2)CC1 :: 2.2
COc1ccccc1N1CCN(CCNC(=N)C2CCCCC2)CC1 :: 3.4
COc1ccccc1N1CCN(CCNC(=O)c2ccncn2)CC1 :: 1.5
COc1ccccc1N1CCN(CCNC(=O)c2cccnc2)CC1 :: 1.2
COc1ccccc1N1CCN(CCCC(O)c2ccc(F)cc2)CC1 (configuration not stated) [ANISOPIROL] :: 3.4
COc1ccccc1N1CCN(CCCOc2ccc(F)cc2)CC1 :: 4.1
COc1ccccc1N1CCN(CCNC(=O)c2ccco2)CC1 :: 1.6
COc1ccccc1N1CCN(CCNC(=O)C2CCCCC2)CC1 :: 2.8

Each molecule below has a reported value. Please supply its logP.
1. COc1ccccc1N1CCN(CCCC(=O)c2ccc(F)cc2)CC1 [FLUANISONE]
2. COc1ccccc1N1CCN(CCNC(=S)C2CCCCC2)CC1
3. COc1ccccc1N1CCN(CCOCc2ccc(F)cc2)CC1
4. COc1ccccc1N1CCN(CC/C=C/c2ccc(F)cc2)CC1
5. COc1ccccc1N1CCN(CCNC(=O)c2ccc[nH]2)CC1
6. COc1ccccc1N1CCN(CCNC(=O)c2ccc(F)cc2)CC1
7. COc1ccccc1N1CCN(CCNC(C)=O)CC1
8. COc1ccccc1N1CCN(CCCCc2ccc(F)cc2)CC1

1: 3.6; 2: 3.7; 3: 3.6; 4: 4.7; 5: 1.6; 6: 2.5; 7: 0.5; 8: 4.8

Endpoint output: logP of COc1ccccc1N1CCN(CCNC(=O)c2cccs2)CC1 . Value?
2

====

# target_desc: 5-hydroxytryptamine receptor 1A (Rattus norvegicus, UniProt P19327)
# Sequence (P19327 whole entry): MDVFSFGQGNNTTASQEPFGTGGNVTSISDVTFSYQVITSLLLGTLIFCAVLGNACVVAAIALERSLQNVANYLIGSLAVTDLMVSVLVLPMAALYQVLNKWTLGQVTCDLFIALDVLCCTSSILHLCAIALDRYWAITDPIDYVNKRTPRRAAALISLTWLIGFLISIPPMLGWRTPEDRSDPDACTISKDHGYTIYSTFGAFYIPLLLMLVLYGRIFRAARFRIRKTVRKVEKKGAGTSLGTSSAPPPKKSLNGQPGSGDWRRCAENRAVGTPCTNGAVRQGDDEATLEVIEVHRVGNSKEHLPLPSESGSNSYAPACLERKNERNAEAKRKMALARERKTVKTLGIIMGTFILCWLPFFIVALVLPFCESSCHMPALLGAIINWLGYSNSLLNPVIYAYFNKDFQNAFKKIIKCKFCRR
# assay_name: pKi value against rat 5-hydroxytryptamine 1A receptor.
observation_type: pKi
Give bare numbers, as −log10 of the molar value.

COc1ccccc1N1CCN(CCNC(=N)C2CCCCC2)CC1 :: 8.30
COc1ccccc1N1CCN(CCNC(=S)C2CCCCC2)CC1 :: 9.50
COc1ccccc1N1CCN(CCCOc2ccc(F)cc2)CC1 :: 8.50

For every item below, please supply its pKi.
1. COc1ccccc1N1CCN(CC/C=C/c2ccc(F)cc2)CC1
2. COc1ccccc1N1CCN(CCNC(=O)c2ccccc2)CC1
3. COc1ccccc1N1CCN(CCNC(=O)c2ccncn2)CC1
4. COc1ccccc1N1CCN(CCCC(=O)c2ccc(F)cc2)CC1
5. COc1ccccc1N1CCN(CCCCc2ccc(F)cc2)CC1
6. COc1ccccc1N1CCN(CCNC(=O)c2ccc[nH]2)CC1

[8.70, 8.90, 7.80, 9.00, 9.00, 7.80]

Below are 5 molecules. Give each one its pKi.
1. COc1ccccc1N1CCN(CCNC(=O)C2CCCCC2)CC1
2. COc1ccccc1N1CCN(CCNC(=O)c2ccc(F)cc2)CC1
3. COc1ccccc1N1CCN(CCNC(=O)c2ccco2)CC1
4. COc1ccccc1N1CCN(CCOCc2ccc(F)cc2)CC1
5. COc1ccccc1N1CCN(CCCC(O)c2ccc(F)cc2)CC1 (configuration not stated)

9.10
9.00
7.70
7.70
8.60

Okay, here is my list. What is pKi for each of these?
1. COc1ccccc1N1CCN(CCNC(C)=O)CC1
2. COc1ccccc1N1CCN(CCNC(=O)c2cccnc2)CC1

1. 6.10
2. 6.80

// query pKi value for entry COc1ccccc1N1CCN(CCNC(=O)c2cccs2)CC1
8.80

====

# target_desc: 5-hydroxytryptamine receptor 1A (Rattus norvegicus)
# assay_name: Binding affinity was evaluated by determining in vitro displacement of [3H]8-OH-DPAT from the central 5-hydroxytryptamine 1A receptor recognition site in rat frontal cortex homogenate.
# Assay type: tissue-based
observation_type: pKi
Numbers only, as −log10 of the molar value.

Here's what some known entries look like.
COc1ccccc1N1CCN(CCNC(=O)c2ccc(F)cc2)CC1 :: 9.00
COc1ccccc1N1CCN(CCCC(=O)c2ccc(F)cc2)CC1 :: 9.00
COc1ccccc1N1CCN(CCNC(=O)c2ccco2)CC1 :: 7.74

Answer for every listed entry: what is its pKi? The entries follow.
1. O=C(NCCN1CCN(c2cccc3c2OCC(CO)O3)CC1)c1ccc(F)cc1 (single isomer, unassigned)
2. COc1ccccc1N1CCN(CCNC(=O)C2CCCCC2)CC1
3. O=C(NCCN1CCN(c2ccccc2)CC1)c1ccc(F)cc1

[8.77, 9.10, 8.31]

Hi team, please reply with pKi for each item in this list.
1. COc1ccccc1N1CCN(CCCOc2ccc(F)cc2)CC1
2. COc1ccccc1N1CCN(CCCCc2ccc(F)cc2)CC1
3. COc1ccccc1N1CCN(CCNC(=O)c2ccncn2)CC1

1: 8.47; 2: 8.96; 3: 7.82

Please give pKi, item by item, for the list that follows.
1. COc1ccccc1N1CCN(CCNC(=S)C2CCCCC2)CC1
2. COc1ccccc1N1CCN(CCNC(C)=O)CC1
3. COc1ccccc1N1CCN(CCNC(=O)c2ccccc2)CC1

9.49
6.10
8.89

Which pKi value is on record for COc1ccccc1N1CCN(CCNC(=O)c2cccnc2)CC1 ?
6.85

====

# target_desc: D(2) dopamine receptor (Rattus norvegicus, UniProt P61169)
# Sequence (P61169 whole entry): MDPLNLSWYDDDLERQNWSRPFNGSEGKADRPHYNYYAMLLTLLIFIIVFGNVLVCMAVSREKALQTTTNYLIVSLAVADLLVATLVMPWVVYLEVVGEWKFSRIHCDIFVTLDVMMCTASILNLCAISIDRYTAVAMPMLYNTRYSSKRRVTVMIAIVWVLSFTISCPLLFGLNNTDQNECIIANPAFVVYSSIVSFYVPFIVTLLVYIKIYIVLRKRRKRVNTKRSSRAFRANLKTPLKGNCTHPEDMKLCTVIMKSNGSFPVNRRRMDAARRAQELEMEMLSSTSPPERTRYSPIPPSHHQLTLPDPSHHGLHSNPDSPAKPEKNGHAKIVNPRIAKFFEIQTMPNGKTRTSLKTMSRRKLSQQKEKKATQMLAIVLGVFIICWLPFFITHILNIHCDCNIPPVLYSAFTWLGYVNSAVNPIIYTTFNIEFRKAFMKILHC
# assay_name: In vitro displacement of [3H]spiperone from Dopamine receptor D2 binding site in rat striatum.
observation_type: log10(Ki) (log10 of the value in nM)
Hey, these are logged values: log10 of Ki, nM being the unit before logging.

Worked examples, 5 compounds total:
O=C(NCCN1CCN(c2cccc3c2OCC(CO)O3)CC1)c1ccc(F)cc1 (single isomer, unassigned) :: 2.15
O=C(NCCN1CCN(c2cccc3ccoc23)CC1)c1ccc(F)cc1 :: 0.72
COc1ccccc1N1CCN(CCNC(=O)c2ccc[nH]2)CC1 :: 1.81
COc1ccccc1N1CCN(CCNC(=O)c2ccco2)CC1 :: 1.86
COc1ccccc1N1CCN(CCCOc2ccc(F)cc2)CC1 :: 0.52

Would you be so kind as to report log10(Ki) for each listed record?
1. COc1ccccc1N1CCN(CCCCc2ccc(F)cc2)CC1
2. COc1ccccc1N1CCN(CCNC(=O)c2cccs2)CC1

[0.52, 1.23]

Please give log10(Ki), item by item, for the list that follows.
1. COc1ccccc1N1CCN(CCNC(=O)c2ccccc2)CC1
2. COc1ccccc1N1CCN(CCNC(=O)c2cccnc2)CC1

1: 1.11; 2: 2.76

Record request: log10(Ki) value, item COc1ccccc1N1CCN(CCNC(=N)C2CCCCC2)CC1
2.11

====

# target_desc: D(2) dopamine receptor (Rattus norvegicus)
# assay_name: In vitro displacement of [3H]spiperone from Dopamine receptor D2 binding site in rat striatum.
pKi: −log10 of the molar value.
Record true whenever pKi is at 8 or higher; record false when lower.

COc1ccccc1N1CCN(CCCC(O)c2ccc(F)cc2)CC1 (configuration not stated) :: true

Is pKi for OC[C@@H]1COc2c(cccc2N2CCNCC2)O1 at or above 8?
false

Decide: pKi of COc1ccccc1N1CCN(CCNC(C)=O)CC1 >= 8?
false

Exam item: decide whether the reported pKi for COc1ccccc1N1CCN(CCNC(=O)c2ccncn2)CC1 is at least 8.
false

Could you verify whether the entry COc1ccccc1N1CCN(CCCC(=O)c2ccc(F)cc2)CC1 shows pKi of no less than 8?
true

// inclusive: pKi at least 8? input: c1ccc(N2CCNCC2)cc1
false

Is reported pKi greater than or equal to 8 here: c1cc(N2CCNCC2)c2occc2c1
false

Answer whether pKi of COc1ccccc1N1CCN(CC/C=C/c2ccc(F)cc2)CC1 is greater than or equal to 8.
true

In plain terms: is recorded pKi at least 8 for COc1ccccc1N1CCN(CCNC(=O)C2CCCCC2)CC1 ?
false

====

# target_desc: UniProtKB P19327
# assay_name: Binding affinity was evaluated by determining in vitro displacement of [3H]8-OH-DPAT from the central 5-hydroxytryptamine 1A receptor recognition site in rat frontal cortex homogenate.
# Assay type: tissue-based
Hi there, I'd appreciate the recorded pKi for every entry that follows.
Give bare numbers, as −log10 of the molar value.

Use the examples below as a reference point.
COc1ccccc1N1CCN(CCOCc2ccc(F)cc2)CC1 :: 7.66
COc1ccccc1N1CCN(CCNC(=O)c2ccc[nH]2)CC1 :: 7.80
COc1ccccc1N1CCN(CC/C=C/c2ccc(F)cc2)CC1 :: 8.74
COc1ccccc1N1CCN(CCCC(O)c2ccc(F)cc2)CC1 (stereo unspecified) :: 8.60
COc1ccccc1N1CCN(CCNC(=N)C2CCCCC2)CC1 :: 8.35

Could you now consider this next compound?
Dear colleague, I am looking for the recorded pKi of the following compound: COc1ccccc1N1CCN(CCNC(=O)c2cccs2)CC1
8.80

Data provenance is ChEMBL document CHEMBL1130285.
